Readings of melting point for the listed compounds
Structures can show the parent of a compound that is named as a salt.
Measurement label: melting point (°C)

Compound | Measurement label | Unit text | Bound type | Result number
Cc1cc(OC(=O)N2CCN3CCC2CC3)ccc1Br (as salt: hydrochloride) | melting point | °C | = | 212.5
O=C(Oc1cccc(Oc2ccccc2)c1)N1CCN2CCC1CC2 (as salt: hydrochloride) | melting point | °C | = | 204.8
O=C(Oc1ccc(Oc2ccccc2)cc1)N1CCN2CCC1CC2 (as salt: hydrochloride) | melting point | °C | = | 238
O=C(Oc1ccc(-n2ccnc2)cc1)N1CCN2CCC1CC2 (as salt: hydrochloride) | melting point | °C | > | 300
O=C(Oc1ccc2ccccc2c1)N1CCN2CCC1CC2 (as salt: hydrochloride) | melting point | °C | = | 255.5
O=C(Oc1ccccc1C(F)(F)F)N1CCN2CCC1CC2 (as salt: hydrochloride) | melting point | °C | = | 228.7
O=C(Oc1ccc(C(F)(F)F)cc1)N1CCN2CCC1CC2 (as salt: hydrochloride) | melting point | °C | = | 260.7
O=C(Oc1ccc(I)cc1)N1CCN2CCC1CC2 (as salt: hydrochloride) | melting point | °C | = | 280.2
CCOC(=O)N1CCN2CCC1CC2 (as salt: hydrochloride) | melting point | °C | = | 207.7
CC(C)(C)c1ccc(OC(=O)N2CCN3CCC2CC3)cc1 (as salt: hydrochloride) | melting point | °C | = | 289.7
O=C(Oc1ccc(-n2cncn2)cc1)N1CCN2CCC1CC2 (as salt: hydrochloride) | melting point | °C | = | 253.1
O=C(Oc1cccc(C(F)(F)F)c1)N1CCN2CCC1CC2 (as salt: hydrochloride) | melting point | °C | = | 229.3
S=C(Oc1ccccc1)N1CCN2CCC1CC2 (as salt: hydrochloride) | melting point | °C | = | 272.2
CSc1ccc(OC(=O)N2CCN3CCC2CC3)cc1 (as salt: hydrochloride) | melting point | °C | = | 235.2
CC(=O)N1CCN(c2ccc(OC(=O)N3CCN4CCC3CC4)cc2)CC1 (as salt: hydrochloride) | melting point | °C | = | 166.6
O=C(Oc1ccccc1Cc1ccccc1)N1CCN2CCC1CC2 (as salt: hydrochloride) | melting point | °C | = | 214
O=C(Oc1ccccc1-c1nc2ccccc2o1)N1CCN2CCC1CC2 (as salt: hydrochloride) | melting point | °C | = | 259.9
Cc1ccc(OC(=O)N2CCN3CCC2CC3)cc1C (as salt: hydrochloride) | melting point | °C | = | 246
CC(C)(C)c1cccc(OC(=O)N2CCN3CCC2CC3)c1 (as salt: hydrochloride) | melting point | °C | = | 283.4
O=C(Oc1cccc(F)c1)N1CCN2CCC1CC2 (as salt: hydrochloride) | melting point | °C | = | 228.2
O=C(Oc1ccccc1-c1nc2ccccc2s1)N1CCN2CCC1CC2 (as salt: hydrochloride) | melting point | °C | = | 247.6
O=C(Oc1ccccc1Br)N1CCN2CCC1CC2 (as salt: hydrochloride) | melting point | °C | = | 267.2
O=C(Oc1ccccc1I)N1CCN2CCC1CC2 (as salt: hydrochloride) | melting point | °C | = | 254
O=C(OCc1ccccc1)N1CCN2CCC1CC2 (as salt: hydrochloride) | melting point | °C | = | 235.6
O=C(Oc1ccccc1[N+](=O)[O-])N1CCN2CCC1CC2 (as salt: hydrochloride) | melting point | °C | = | 260.4
N#Cc1ccc(OC(=O)N2CCN3CCC2CC3)cc1 (as salt: hydrochloride) | melting point | °C | = | 289.8
O=C(Oc1ccc([N+](=O)[O-])cc1)N1CCN2CCC1CC2 (as salt: hydrochloride) | melting point | °C | = | 267.5
O=C(c1ccccc1)c1cccc(OC(=O)N2CCN3CCC2CC3)c1 (as salt: hydrochloride) | melting point | °C | = | 241.7
CC(C)COC(=O)N1CCN2CCC1CC2 (as salt: hydrochloride) | melting point | °C | = | 266.5
O=C(Oc1cccc([N+](=O)[O-])c1)N1CCN2CCC1CC2 (as salt: hydrochloride) | melting point | °C | = | 205.1
O=C(Oc1ccc(Cc2ccccc2)cc1)N1CCN2CCC1CC2 (as salt: hydrochloride) | melting point | °C | = | 221.8
CCCOC(=O)N1CCN2CCC1CC2 (as salt: hydrochloride) | melting point | °C | = | 242
O=C(Oc1ccc(F)cc1)N1CCN2CCC1CC2 (as salt: hydrochloride) | melting point | °C | = | 276.8
Cc1cccc(OC(=O)N2CCN3CCC2CC3)c1 (as salt: hydrochloride) | melting point | °C | = | 249.2
COC(=O)c1ccc(OC(=O)N2CCN3CCC2CC3)cc1 (as salt: hydrochloride) | melting point | °C | = | 237.4
